Target: D(2) dopamine receptor (Homo sapiens) (UniProt P14416)
Sequence (P14416 whole entry, looked up): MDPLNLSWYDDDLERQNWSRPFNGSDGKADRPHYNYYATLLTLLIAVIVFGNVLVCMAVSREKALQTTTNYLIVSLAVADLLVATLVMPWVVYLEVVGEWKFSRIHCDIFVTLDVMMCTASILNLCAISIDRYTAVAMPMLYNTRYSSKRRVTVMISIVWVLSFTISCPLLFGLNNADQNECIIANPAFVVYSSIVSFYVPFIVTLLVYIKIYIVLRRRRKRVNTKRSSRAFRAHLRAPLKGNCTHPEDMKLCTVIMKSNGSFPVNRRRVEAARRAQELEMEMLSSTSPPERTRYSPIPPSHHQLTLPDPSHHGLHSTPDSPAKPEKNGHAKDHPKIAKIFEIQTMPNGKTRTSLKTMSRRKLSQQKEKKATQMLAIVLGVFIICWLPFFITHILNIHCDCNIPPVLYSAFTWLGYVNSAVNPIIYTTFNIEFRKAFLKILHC
Assay: Dopamine D2 receptor (DRD2) small molecule agonists, cell-based qHTS assay (AID 1963594); further: nearly all actives have a fitted effect of over 35% in size
Details: HEK293-DRD2 cAMP HTRF, agonist mode, 30 min; series mostly up to 92.4 µM
Records with an inconclusive call do not appear. The source made the active and inactive calls. The call rests on the fitted dose curve.
property measured: activation

Some entries whose results are on file:
[
  {
    "compound": "Nc1cccnc1N",
    "measurement target": "D(2) dopamine receptor (Homo sapiens) (UniProt P14416)",
    "property measured": "activation",
    "value reported": "inactive"
  },
  {
    "compound": "O=C(O)c1cc(Br)c(O)c(Br)c1",
    "measurement target": "D(2) dopamine receptor (Homo sapiens) (UniProt P14416)",
    "property measured": "activation",
    "value reported": "inactive"
  },
  {
    "compound": "C/C=C/C=C/CO",
    "measurement target": "D(2) dopamine receptor (Homo sapiens) (UniProt P14416)",
    "property measured": "activation",
    "value reported": "inactive"
  },
  {
    "compound": "CCCCOCCOCCOCc1cc2c(cc1CCC)OCO2",
    "measurement target": "D(2) dopamine receptor (Homo sapiens) (UniProt P14416)",
    "property measured": "activation",
    "value reported": "inactive"
  }
]

Prompt line: Please indicate activation recorded for O=C(O)c1nc(Cl)c(Cl)c(Cl)c1Cl
Response line: inactive

Prompt line: Please indicate activation recorded for CCCOC(=O)CC
Response line: inactive

Prompt line: Please indicate activation recorded for CC(C)CCOC(=O)c1ccc(N(C)C)cc1
Response line: inactive

Prompt line: Please indicate activation recorded for C/C(=C\c1ccc(C(=O)O)cc1)c1ccc2c(c1)C(C)(C)CCC2(C)C
Response line: inactive

Prompt line: Please indicate activation recorded for Cn1cc(C(=O)[C@@H]2CCc3nc[nH]c3C2)c2ccccc21
Response line: inactive

====

Assay: p53 small molecule agonists, cell-based qHTS assay with rat liver microsomes: qHTS cell viability counter screen (AID 1963580); further: nearly all actives have a fitted effect of over 45% in size
Settings: p53RE-bla HCT-116 + rat microsomes, ATP viability, 16 h; series mostly up to 66 µM
Records with an inconclusive call do not appear. Calls of active or inactive are those of the source. The call rests on the fitted dose curve.
Write down one outcome, taken from Yes (active), No (inactive)

Worked set:
[
  {
    "compound": "Cc1cc2c(cc1CC(=O)c1sccc1S(=O)(=O)Nc1onc(C)c1Cl)OCO2",
    "label value": "No"
  },
  {
    "compound": "[O-][n+]1ccccc1SSc1cccc[n+]1[O-]",
    "label value": "Yes"
  },
  {
    "compound": "CC(C)Nc1ccc(NC(C)C)c2c1C(=O)c1ccccc1C2=O",
    "label value": "No"
  },
  {
    "compound": "NO",
    "label value": "No"
  }
]

Prompt line: Record lookup: outcome of this test for COc1cccc(CCc2ccccc2OCC(CN(C)C)OC(=O)CCC(=O)O)c1 (stereo unspecified) ?
Response line: No

Prompt line: Record lookup: outcome of this test for CC1=NN(c2cccc(S(=O)(=O)O)c2)C(=O)C1 ?
Response line: No

Prompt line: Record lookup: outcome of this test for C=C(C)C(=O)OCc1ccccc1 ?
Response line: No

Prompt line: Record lookup: outcome of this test for Cc1oc2c(NC(=O)c3c(Cl)cccc3Cl)cccc2c1C(C)(C)O ?
Response line: No

Prompt line: Record lookup: outcome of this test for CC1CN(c2ccccc2)NC1=O (stereo unspecified) ?
Response line: No

Prompt line: Record lookup: outcome of this test for C[C@]12CCC(=O)C=C1[C@@H]1C[C@@H]1[C@H]1[C@@H]3[C@@H]4C[C@@H]4[C@@]4(CCC(=O)O4)[C@@]3(C)CC[C@@H]12 ?
Response line: No

Prompt line: Record lookup: outcome of this test for O=C(O)c1ccc(O)c(O)c1 ?
Response line: No

Prompt line: Record lookup: outcome of this test for C[C@H]1[C@H]2CC[C@H]3[C@@H]4CC=C5C[C@@H](N(C)C)CC[C@]5(C)[C@H]4CC[C@]23CN1C ?
Response line: No

Prompt line: Record lookup: outcome of this test for Oc1cccc(Nc2ccccc2)c1 ?
Response line: No

Prompt line: Record lookup: outcome of this test for CCCCCC=CCC=CCCCCCCCC(=O)OCC ?
Response line: No

Prompt line: Record lookup: outcome of this test for O=C(CCCCCCC(=O)Nc1ccccc1)NO ?
Response line: No

Prompt line: Record lookup: outcome of this test for CC(CC=O)CCCC(C)(C)O (stereo unspecified) ?
Response line: No

Prompt line: Record lookup: outcome of this test for OCCCCCCCCCCCCBr ?
Response line: No

====

Target: D(2) dopamine receptor (Homo sapiens) (UniProt P14416)
Assay: Dopamine D2 receptor (DRD2) small molecule antagonists, cell-based qHTS assay (AID 1963595)
Settings: HEK293-DRD2 cAMP HTRF antagonist mode; series mostly up to 92.4 µM
Results filed as inconclusive are left out. The source made the active and inactive calls. Calls come from the whole dose curve; as a rule, active = well fitted inhibition curve with a large enough effect in the signal ratio in the repeat runs, with a control signal flat; inconclusive = weak or mixed curves, or effect the other way; inactive = flat fitted curve, though single readings scatter; the % refers to the signal ratio.
property measured: outcome

Some entries whose results are on file:
[
  {
    "compound": "CCCCCC(C)O (configuration not stated)",
    "measurement target": "D(2) dopamine receptor (Homo sapiens) (UniProt P14416)",
    "property measured": "outcome",
    "value reported": "inactive"
  },
  {
    "compound": "CCCCC[Si](OCC)(OCC)OCC",
    "measurement target": "D(2) dopamine receptor (Homo sapiens) (UniProt P14416)",
    "property measured": "outcome",
    "value reported": "inactive"
  },
  {
    "compound": "COc1ccc(/C=C/C(=O)c2ccc(OC)cc2OC)cc1",
    "measurement target": "D(2) dopamine receptor (Homo sapiens) (UniProt P14416)",
    "property measured": "outcome",
    "value reported": "inactive"
  },
  {
    "compound": "CCCCCCCCCCCCSC#N",
    "measurement target": "D(2) dopamine receptor (Homo sapiens) (UniProt P14416)",
    "property measured": "outcome",
    "value reported": "inactive"
  },
  {
    "compound": "O=C(O)c1cc(Br)c(O)c(Br)c1",
    "measurement target": "D(2) dopamine receptor (Homo sapiens) (UniProt P14416)",
    "property measured": "outcome",
    "value reported": "inactive"
  }
]

Prompt line: Please indicate outcome recorded for COC(=O)Nc1nc2ccc(C(=O)C3CC3)cc2[nH]1
Response line: inactive

Prompt line: Please indicate outcome recorded for C[N+]1(C)CCC(OC(=O)C(O)(c2ccccc2)C2CCCC2)C1 (configuration not stated)
Response line: inactive

====

Biological target: KiSS-1 receptor (Homo sapiens)
Experiment: Human kisspeptin (KISS1R) small molecule agonists, calcium flux assay in KISS1R-HEK293 cells (AID 1920064)
Details: KISS1R-HEK293, calcium flux fluorescence, agonist; series mostly up to 76.8 µM
Active and inactive are the calls of the source. The call rests on the fitted dose curve; in most records, active means well fitted activation curve with a large enough effect in the repeat runs; inconclusive means weak or mixed curves; inactive means flat fitted curve, though single readings scatter.
property measured: activation

Some entries whose results are on file:
[
  {
    "compound": "C=C[Si](OC)(OC)OC",
    "measurement target": "KiSS-1 receptor (Homo sapiens)",
    "activation": "inactive"
  },
  {
    "compound": "CC(C)CCCCCCOC(=O)C1CCCCC1C(=O)OCCCCCCC(C)C (stereo unspecified)",
    "measurement target": "KiSS-1 receptor (Homo sapiens)",
    "activation": "inactive"
  },
  {
    "compound": "CCN1CCN(C(=O)N[C@@H](C(=O)N[C@@H]2C(=O)N3[C@@H]2SC(C)(C)[C@H]3C(=O)O)c2ccccc2)C(=O)C1=O",
    "measurement target": "KiSS-1 receptor (Homo sapiens)",
    "activation": "inactive"
  },
  {
    "compound": "O=S(=O)(O)c1ccccc1/C=C/c1ccc(-c2ccc(/C=C/c3ccccc3S(=O)(=O)O)cc2)cc1",
    "measurement target": "KiSS-1 receptor (Homo sapiens)",
    "activation": "inactive"
  },
  {
    "compound": "CCCCCCCCCCCC(=O)OCC",
    "measurement target": "KiSS-1 receptor (Homo sapiens)",
    "activation": "inactive"
  }
]

Prompt line: Please indicate activation recorded for CCO[Si](CCC1CCC2OC2C1)(OCC)OCC (stereo unspecified)
Response line: inactive

Prompt line: Please indicate activation recorded for Cc1c(C)c2c(c(C)c1OC(=O)c1cccnc1)CC[C@@](C)(CCC[C@H](C)CCC[C@H](C)CCCC(C)C)O2
Response line: inactive

Prompt line: Please indicate activation recorded for Nc1ccc(C(=O)Nc2ccccc2N)cc1
Response line: inactive

Prompt line: Please indicate activation recorded for Cc1c(O)cccc1O
Response line: inactive

Prompt line: Please indicate activation recorded for Cc1ccc(N=Nc2c(O)c(C(=O)O)cc3ccccc23)c(S(=O)(=O)O)c1
Response line: inactive

Prompt line: Please indicate activation recorded for Cc1cc(C)c(N)cc1C
Response line: inactive
